Assignment: determine reported Ki for the given molecules.
Target: MDMX (Homo sapiens, UniProt O15151)
Sequence (O15151 1-125): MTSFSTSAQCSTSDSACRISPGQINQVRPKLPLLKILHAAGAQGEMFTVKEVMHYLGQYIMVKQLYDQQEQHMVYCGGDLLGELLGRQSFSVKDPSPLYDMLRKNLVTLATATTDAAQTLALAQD
Experiment: Competitive fluorescence polarization assay for MDMX
Format: binding
Conditions: competitive FP assay, read-out: Ki (MDMX)
Where a SMILES comes first, the peptide text is derived from it. Bridges are numbered along the chain shown (N, C = ends). [ ]: non-standard residue; d: D form. R8 = C=CCCCCCC[C@@](C)(N)C(=O)O; Cba = N[C@@H](CC1CCC1)C(=O)O; S5 = C=CCCC[C@](C)(N)C(=O)O

query: Recorded Ki for CC[C@H](C)[C@H](NC(=O)[C@H](C)NC(=O)[C@H](C)NC(=O)[C@]1(C)CCCC=CCCCCCC[C@@](C)(NC(=O)[C@H](Cc2ccccc2)NC(=O)[C@@H](NC(=O)[C@H](CC(C)C)NC(C)=O)[C@@H](C)O)C(=O)N[C@@H](C)C(=O)N[C@@H](Cc2ccc(O)cc2)C(=O)N[C@@H](Cc2c[nH]c3ccccc23)C(=O)N[C@@H](C)C(=O)N[C@@H](CCC(N)=O)C(=O)N[C@@H](CC2CCC2)C(=O)N1)C(=O)N[C@H](C)C(N)=O [compound 264] (Ac-LTF[R8]AYWAQ[Cba][S5]AAI[dA]-NH2; staple 4-11) , please?
result: 10 to 100 nM

query: Can you look up the measured Ki of CC(C)C[C@H](NC(=O)c1ccc(F)cc1)C(=O)N[C@H](C(=O)N[C@@H](Cc1ccccc1)C(=O)N[C@]1(C)CCCCCCC=CCCC[C@@](C)(C(=O)N[C@@H](CO)C(=O)N[C@@H](C)C(=O)N[C@@H](C)C(N)=O)NC(=O)[C@H](CC2CCC2)NC(=O)[C@H](CCC(N)=O)NC(=O)[C@H](C)NC(=O)[C@H](Cc2c[nH]c3ccccc23)NC(=O)[C@H](Cc2ccc(O)cc2)NC(=O)[C@H](CCC(=O)O)NC1=O)[C@@H](C)O for me?
result: 10 to 100 nM

query: Need Ki of CCCC[C@H](NC(=O)[C@H](C)NC(=O)[C@H](C)NC(=O)[C@]1(C)CCCC=CCCCCCC[C@@](C)(NC(=O)[C@H](Cc2ccccc2)NC(=O)[C@@H](NC(=O)[C@H](CC(C)C)NC(C)=O)[C@@H](C)O)C(=O)N[C@@H](C)C(=O)N[C@@H](Cc2ccc(O)cc2)C(=O)N[C@@H](Cc2c[nH]c3ccccc23)C(=O)NC(C)(C)C(=O)N[C@@H](CCC(N)=O)C(=O)N[C@@H](CC(C)C)C(=O)N1)C(=O)N[C@@H](C)C(N)=O (single isomer, unassigned) , thanks.
result: 10 to 100 nM

query: Looking for the measured Ki of CC(=O)N[C@@H](CC(C)C)C(=O)N[C@H](C(=O)N[C@@H](Cc1ccccc1)C(=O)N[C@]1(C)CCCCCCC=CCCC[C@@](C)(C(=O)N[C@@H](CO)C(=O)N[C@@H](C)C(=O)N[C@@H](C)C(N)=O)NC(=O)[C@H](CC2CCC2)NC(=O)[C@H](CCC(N)=O)NC(=O)[C@H](C)NC(=O)[C@H](Cc2c[nH]c3ccccc23)NC(=O)[C@H](Cc2ccc(O)cc2)NC(=O)[C@H](CO)NC1=O)[C@@H](C)O (single isomer, unassigned) , can you help?
result: < 10 nM

query: GET /values?readout=Ki&item= CC(=O)N[C@@H](CCC(=O)O)C(=O)N[C@H](C(=O)N[C@@H](Cc1ccccc1)C(=O)N[C@]1(C)CCCCCCC=CCCC[C@@](C)(C(=O)N[C@@H](CO)C(=O)N[C@@H](Cc2c[nH]c3ccccc23)C(=O)N[C@@H](C)C(N)=O)NC(=O)[C@H](CC(C)C)NC(=O)[C@H](CCC(N)=O)NC(=O)[C@H](C)NC(=O)[C@H](Cc2c[nH]c3ccccc23)NC(=O)[C@H](Cc2ccc(O)cc2)NC(=O)[C@H](C(C)C)NC1=O)[C@@H](C)O [compound 128] (Ac-ETF[R8]VYWAQL[S5]SWA-NH2; staple 4-11)
result: 10 to 100 nM

The reported measurements were obtained from patent US8927500B2.
